Hello, the source for this data is ChEMBL document CHEMBL3769326, in case you need it.

Give CC50 at 72 h for every item shown.
- assay: Cytotoxicity against macrophages after 72 hrs by MTT assay
- Assay type: cell-based, Macrophage

## Input Supply reported CC50 at 72 h belonging to this molecule: CCn1cc(C(=O)O)c(=O)c2cc(F)c(N3CCN(C(=O)c4cc(Cl)ccc4O)CC3)cc21
## Output 273 µM

## Input Given O=C(O)c1cn(C2CC2)c2cc(N3CCN(C(=O)c4cc(Br)ccc4O)CC3)c(F)cc2c1=O , respond with its CC50 at 72 h.
## Output 289 µM

## Input Please supply the value of reported CC50 at 72 h for the item CCn1cc(C(=O)O)c(=O)c2cc(F)c(N3CCN(C(=O)c4cc(Br)ccc4O)CC3)cc21
## Output 266 µM

## Input Supply recorded CC50 at 72 h for CCn1cc(C(=O)O)c(=O)c2cc(F)c(N3CCN(C(=O)c4cc(OC)ccc4O)CC3)cc21 here.
## Output 279 µM

## Input Please give measured CC50 at 72 h of the following entry: COc1ccc(C(=O)N2CCN(c3cc4c(cc3F)c(=O)c(C(=O)O)cn4C3CC3)CC2)c(O)c1
## Output 311 µM

## Input Name the recorded CC50 at 72 h of the item O=C(O)c1cn(C2CC2)c2cc(N3CCN(C(=O)c4cc(Cl)ccc4O)CC3)c(F)cc2c1=O in your answer.
## Output 269 µM

## Input Dear colleague, please send me the reported CC50 at 72 h for O=C(O)c1cn(C2CC2)c2cc(N3CCN(C(=O)c4cc([N+](=O)[O-])cc([N+](=O)[O-])c4O)CC3)c(F)cc2c1=O when you can.
## Output 365 µM

## Input Tell me CC50 at 72 h reported for CCn1cc(C(=O)O)c(=O)c2cc(F)c(N3CCN(C(=O)c4c(C)cccc4O)CC3)cc21
## Output 343 µM

## Input Kindly indicate its recorded CC50 at 72 h. Item: O=C(O)c1cn(C2CC2)c2cc(N3CCN(C(=O)c4cc([N+](=O)[O-])ccc4O)CC3)c(F)cc2c1=O
## Output 297 µM

====

- system-name: Phosphatidylinositol 4,5-bisphosphate 3-kinase catalytic subunit delta isoform (Homo sapiens)
- Sequence (O00329 whole entry): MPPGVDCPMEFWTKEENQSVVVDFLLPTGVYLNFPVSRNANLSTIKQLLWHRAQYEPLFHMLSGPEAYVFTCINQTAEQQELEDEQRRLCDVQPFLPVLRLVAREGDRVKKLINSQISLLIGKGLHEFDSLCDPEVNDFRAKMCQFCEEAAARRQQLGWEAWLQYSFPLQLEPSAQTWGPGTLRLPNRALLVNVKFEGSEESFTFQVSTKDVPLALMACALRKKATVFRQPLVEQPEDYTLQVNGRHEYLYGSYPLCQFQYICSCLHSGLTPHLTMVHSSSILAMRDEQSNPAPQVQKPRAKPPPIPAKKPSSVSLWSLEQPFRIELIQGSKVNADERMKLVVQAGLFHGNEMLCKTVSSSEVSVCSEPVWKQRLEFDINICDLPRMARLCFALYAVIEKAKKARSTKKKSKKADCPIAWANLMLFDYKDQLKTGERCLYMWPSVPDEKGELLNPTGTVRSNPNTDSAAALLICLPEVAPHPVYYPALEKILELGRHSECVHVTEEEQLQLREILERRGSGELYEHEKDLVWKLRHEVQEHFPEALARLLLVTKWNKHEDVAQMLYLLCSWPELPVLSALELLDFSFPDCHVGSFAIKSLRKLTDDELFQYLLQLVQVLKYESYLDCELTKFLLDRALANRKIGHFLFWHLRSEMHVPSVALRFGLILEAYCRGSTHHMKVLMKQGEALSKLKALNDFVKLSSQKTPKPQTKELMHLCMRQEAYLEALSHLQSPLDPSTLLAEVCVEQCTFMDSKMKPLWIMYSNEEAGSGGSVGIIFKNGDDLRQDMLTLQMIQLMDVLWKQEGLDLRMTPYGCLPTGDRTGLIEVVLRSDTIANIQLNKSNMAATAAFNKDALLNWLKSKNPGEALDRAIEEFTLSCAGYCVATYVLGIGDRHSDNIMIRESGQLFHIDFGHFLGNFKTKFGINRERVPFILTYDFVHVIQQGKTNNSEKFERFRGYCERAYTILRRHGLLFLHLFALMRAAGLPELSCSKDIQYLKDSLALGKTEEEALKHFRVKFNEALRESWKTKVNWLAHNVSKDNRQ
- assay: Inhibition of human PI3Kdelta by fluorescence-based immunoassay
I'd be grateful if you could share measured IC50 for these entries.
# output: bare number, implied unit nM

## Input Give a short answer stating reported IC50 for O=C(O)c1cn(C2CC2)c2cc(N3CCN(C(=O)c4cc([N+](=O)[O-])ccc4O)CC3)c(F)cc2c1=O .
## Output 722

## Input Please list IC50 recorded for the compound CCn1cc(C(=O)O)c(=O)c2cc(F)c(N3CCN(C(=O)c4cc(Cl)ccc4O)CC3)cc21
## Output 311

## Input Return the recorded IC50 value; entry: CCn1cc(C(=O)O)c(=O)c2cc(F)c(N3CCN(C(=O)c4cc(OC)ccc4O)CC3)cc21
## Output 489
